target: B-RAF G466V (Homo sapiens, UniProt P15056, G466V)
Construct: expressed in transfected cells; host or cells: T-Rex 293 cells (Invitrogen #R71007)
Sequence (P15056 whole entry G466V): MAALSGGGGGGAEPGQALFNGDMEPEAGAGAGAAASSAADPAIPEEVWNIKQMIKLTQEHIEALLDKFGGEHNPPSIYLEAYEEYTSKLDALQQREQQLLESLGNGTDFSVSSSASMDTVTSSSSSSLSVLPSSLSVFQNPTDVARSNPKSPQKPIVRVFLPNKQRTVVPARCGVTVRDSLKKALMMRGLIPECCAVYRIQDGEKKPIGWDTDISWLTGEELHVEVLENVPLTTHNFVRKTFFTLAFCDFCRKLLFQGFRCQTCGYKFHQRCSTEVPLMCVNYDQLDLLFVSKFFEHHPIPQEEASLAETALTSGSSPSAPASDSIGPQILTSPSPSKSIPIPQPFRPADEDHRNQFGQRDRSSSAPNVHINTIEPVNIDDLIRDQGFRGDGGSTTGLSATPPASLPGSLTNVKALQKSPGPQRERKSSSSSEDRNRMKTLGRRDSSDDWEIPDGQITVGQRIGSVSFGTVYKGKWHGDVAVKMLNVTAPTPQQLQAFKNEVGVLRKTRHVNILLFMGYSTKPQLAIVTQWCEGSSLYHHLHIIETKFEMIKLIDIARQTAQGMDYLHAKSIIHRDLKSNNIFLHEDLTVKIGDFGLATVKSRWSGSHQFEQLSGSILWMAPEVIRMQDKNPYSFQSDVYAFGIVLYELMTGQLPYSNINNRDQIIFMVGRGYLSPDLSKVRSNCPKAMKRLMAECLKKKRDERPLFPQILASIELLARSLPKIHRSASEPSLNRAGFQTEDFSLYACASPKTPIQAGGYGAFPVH
protocol_summary: Target protein degradation, assay D: T-Rex 293 cells, HA-BRAF_G466V, 384 well format
Format: cell-based
condition_set: T-REx-293, Assay D, T-Rex 293 HA-BRAF_G466V cells, 24 hours, Examples 83-269
Here the recorded Dmax is given for each entry.

Some compounds with known Dmax results, for comparison:
- compound: "N#Cc1c(NS(=O)(=O)N2CC[C@@H](F)C2)ccc(F)c1Oc1ccc2ncn(-c3cnc(N4CCC(CN5CC6(CCN(c7ccc8c(c7)CN(C7CCC(=O)NC7=O)C8=O)CC6)C5)CC4)nc3)c(=O)c2c1 (stereo partly drawn)"
  outcome_measure: "Dmax"
  endpoint_result: "35 to 70%"
- compound: "N#Cc1c(NS(=O)(=O)N2CC[C@@H](F)C2)ccc(F)c1Oc1ccc2ncn(-c3cnc(C4(N5CCN(CC6CCN(c7ccc(C8CCC(=O)NC8=O)cc7F)CC6)CC5)CC4)nc3)c(=O)c2c1 (stereo partly drawn)"
  outcome_measure: "Dmax"
  endpoint_result: "≤ 35%"
- compound: "N#Cc1c(NS(=O)(=O)N2CC[C@@H](F)C2)ccc(F)c1Oc1ccc2ncn(-c3cnc(N4CCN(CCN5CCN(c6ccc7c(c6)CN(C6CCC(=O)NC6=O)C7=O)CC5)CC4)nc3)c(=O)c2c1 (stereo partly drawn)"
  outcome_measure: "Dmax"
  endpoint_result: "35 to 70%"
- compound: "N#Cc1c(NS(=O)(=O)N2CC[C@@H](F)C2)ccc(F)c1Oc1ccc2ncn(-c3ccc(N4CC5(CC(CN6CCN(c7ccc8c(c7)CN([C@H]7CCC(=O)NC7=O)C8=O)CC6)C5)C4)cc3)c(=O)c2c1"
  outcome_measure: "Dmax"
  endpoint_result: "35 to 70%"
- compound: "N#Cc1c(NS(=O)(=O)N2CC[C@@H](F)C2)ccc(F)c1Oc1ccc2ncn(-c3ccc(N4CCN(CC5CCN(c6ccc(C7CCC(=O)NC7=O)cc6F)CC5)CC4)cc3)c(=O)c2c1 (single isomer, unassigned)"
  outcome_measure: "Dmax"
  endpoint_result: "35 to 70%"

Write down measured Dmax (B-RAF G466V (Homo sapiens, UniProt P15056, G466V)) for this compound. N#Cc1c(NS(=O)(=O)N2CC[C@@H](F)C2)ccc(F)c1Oc1ccc2ncn(-c3ccc(N4CCN(CCN5CCN(c6ccc(C7CCC(=O)NC7=O)cc6F)CC5)CC4)cc3)c(=O)c2c1 (stereo partly drawn)
≤ 35%

Look up and report measured Dmax (B-RAF G466V (Homo sapiens, UniProt P15056, G466V)) for the following compound: N#Cc1c(NS(=O)(=O)N2CC[C@@H](F)C2)ccc(F)c1Oc1ccc2ncn(-c3ccc(N4CCN(C(=O)C5CCN(c6ccc7c(c6)CN(C6CCC(=O)NC6=O)C7=O)CC5)CC4)cc3)c(=O)c2c1 (single isomer, unassigned)
35 to 70%

Enter recorded Dmax with B-RAF G466V (Homo sapiens, UniProt P15056, G466V) for "N#Cc1c(NS(=O)(=O)N2CC[C@@H](F)C2)ccc(F)c1Oc1ccc2ncn(-c3ccc(N4CCN(CC5CCN(c6ccc(N7CCC(=O)NC7=O)cc6)CC5)CC4)cc3)c(=O)c2c1" here.
≤ 35%

For B-RAF G466V (Homo sapiens, UniProt P15056, G466V), give the measured Dmax of the entry "N#Cc1c(NS(=O)(=O)N2CC[C@@H](F)C2)ccc(F)c1Oc1ccc2ncn(-c3ccc(N4CCC5(CCN(CC6CCN(c7ccc8c(c7)CN([C@@H]7CCC(=O)NC7=O)C8=O)CC6)CC5)CC4)cc3)c(=O)c2c1"
35 to 70%

----------
target: B-RAF V600E (Homo sapiens, UniProt P15056, V600E)
Construct: expressed in transfected cells; host or cells: T-Rex 293 cells (Invitrogen #R71007)
Sequence (P15056 whole entry V600E): as the sequence (P15056 whole entry G466V) above, with V466G, V600E counted along it
protocol_summary: Target protein degradation, assay C: T-Rex 293 cells, HA-BRAF_V600E, 384 well format
Assay type: cell-based
condition_set: Assay C, T-Rex 293 HA-BRAF_V600E cells, 24 hours, Examples 83-269
outcome_measure: DC50

Here are 5 compounds together with their reported answers.
- compound: "N#Cc1c(NS(=O)(=O)N2CC[C@@H](F)C2)ccc(F)c1Oc1ccc2ncn(-c3ccc(N4CCN(C(=O)C5CCN(c6ccc7c(c6)CN(C6CCC(=O)NC6=O)C7=O)CC5)CC4)cc3)c(=O)c2c1 (single isomer, unassigned) [Example 242]"
  target: "B-RAF V600E (Homo sapiens, UniProt P15056, V600E)"
  DC50: "> 500 nM"
- compound: "COc1cc(N2CCN(c3ccc(-n4cnc5ccc(Oc6c(F)ccc(NS(=O)(=O)N7CC[C@@H](F)C7)c6C#N)cc5c4=O)cn3)CC2)cc2c1C(=O)N(C1CCC(=O)NC1=O)C2=O (stereo partly drawn) [Example 139]"
  target: "B-RAF V600E (Homo sapiens, UniProt P15056, V600E)"
  DC50: "5 to 50 nM"
- compound: "CCN(CC1CCN(c2ccc(-n3cnc4ccc(Oc5c(F)ccc(NS(=O)(=O)N6CC[C@@H](F)C6)c5C#N)cc4c3=O)cc2)CC1)[C@H]1C[C@@H](Oc2ccc3c(c2)CN([C@H]2CCC(=O)NC2=O)C3=O)C1 [Example 264]"
  target: "B-RAF V600E (Homo sapiens, UniProt P15056, V600E)"
  DC50: "50 to 500 nM"
- compound: "N#Cc1c(NS(=O)(=O)N2CC[C@@H](F)C2)ccc(F)c1Oc1ccc2ncn(-c3ccc(N4CCC(CCN5CCN(c6ccc7c(c6)C(=O)N(C6CCC(=O)NC6=O)C7=O)CC5)CC4)nc3)c(=O)c2c1 (stereo partly drawn) [Example 163]"
  target: "B-RAF V600E (Homo sapiens, UniProt P15056, V600E)"
  DC50: "50 to 500 nM"
- compound: "N#Cc1c(NS(=O)(=O)N2CC[C@@H](F)C2)ccc(F)c1Oc1ccc2ncn(-c3ccc(N4CC5(CCN(CC6CCN(c7ccc8c(c7)CN([C@@H]7CCC(=O)NC7=O)C8=O)CC6)CC5)C4)cc3)c(=O)c2c1 [Example 193]"
  target: "B-RAF V600E (Homo sapiens, UniProt P15056, V600E)"
  DC50: "50 to 500 nM"

Supply recorded DC50 for N#Cc1c(NS(=O)(=O)N2CC[C@@H](F)C2)ccc(F)c1Oc1ccc2ncn(-c3ccc(N4CCN(CC5CCN(c6ccc(N7CCC(=O)NC7=O)c(F)c6)CC5)CC4)nc3)c(=O)c2c1 [Example 142] here.
5 to 50 nM

Identify measured DC50 associated with N#Cc1c(NS(=O)(=O)N2CC[C@@H](F)C2)ccc(F)c1Oc1ccc2ncn(-c3ccc(N4CCN(CC5CC6(C5)CN(c5ccc7c(c5)CN([C@H]5CCC(=O)NC5=O)C7=O)C6)CC4)cc3)c(=O)c2c1 [Example 179]
50 to 500 nM

Supply measured DC50 of N#Cc1c(NS(=O)(=O)N2CC[C@@H](F)C2)ccc(F)c1Oc1ccc2ncn(-c3ccc(N4CC5(CC(CN6CCN(c7ccc8c(c7)CN([C@H]7CCC(=O)NC7=O)C8=O)CC6)C5)C4)cc3)c(=O)c2c1 [Example 191] in your reply.
50 to 500 nM

Determine from records and report DC50 for N#Cc1c(NS(=O)(=O)N2CC[C@@H](F)C2)ccc(F)c1Oc1ccc2ncn(-c3ccc(N4CC(CN5CCN(C6CCN(c7ccc8c(c7)CN(C7CCC(=O)NC7=O)C8=O)CC6)CC5)C4)cc3)c(=O)c2c1 (single isomer, unassigned) [Example 198]
50 to 500 nM

----------
target: B-RAF G466V (Homo sapiens, UniProt P15056, G466V)
Construct: expressed in transfected cells; host or cells: T-Rex 293 cells (Invitrogen #R71007)
protocol_summary: Target protein degradation, assay D: T-Rex 293 cells, HA-BRAF_G466V, 384 well format
Assay type: cell-based
condition_set: T-REx-293, Assay D, T-Rex 293 HA-BRAF_G466V cells, 24 hours, Examples 83-269
Method: D. T-Rex 293 Cells (384 Well Format) T-Rex 293 cells were purchased from Invitrogen (#R71007), and stably transfected with a pcDNA4/TO_HA-BRAF_G466V construct, using 400 ug Zeocin for selection. […] BRAF intensity is quantified in HCS Studio software (ThermoFisher), using a custom script, exported, analyzed using KNIME, and curve curation is performed in an ELN (Scilligence). Cell toxicity is measured via comparing number of nuclei in PROTAC treated wells to DMSO controls. […]
Dmax overview

Would you please look over these solved cases?
- molecule: "N#Cc1c(NS(=O)(=O)N2CC[C@@H](F)C2)ccc(F)c1Oc1ccc2ncn(-c3ccn(C4CCN(CC5CCN(c6ccc7c(c6)CN([C@H]6CCC(=O)NC6=O)C7=O)CC5)CC4)n3)c(=O)c2c1 [Example 248]"
  target: "B-RAF G466V (Homo sapiens, UniProt P15056, G466V)"
  outcome_measure: "Dmax"
  endpoint_result: "≥ 70%"
- molecule: "N#Cc1c(NS(=O)(=O)N2CC[C@@H](F)C2)ccc(F)c1Oc1ccc2ncn(-c3ccc(N4CCN(CC5CCN(c6ccc(C7CCC(=O)NC7=O)cn6)CC5)CC4)cc3)c(=O)c2c1 (stereo partly drawn) [Example 91]"
  target: "B-RAF G466V (Homo sapiens, UniProt P15056, G466V)"
  outcome_measure: "Dmax"
  endpoint_result: "≤ 35%"
- molecule: "CCN(CC1CCN(c2ccc(-n3cnc4ccc(Oc5c(F)ccc(NS(=O)(=O)N6CC[C@@H](F)C6)c5C#N)cc4c3=O)cc2)CC1)[C@H]1C[C@@H](Oc2ccc3c(c2)CN([C@H]2CCC(=O)NC2=O)C3=O)C1 [Example 264]"
  target: "B-RAF G466V (Homo sapiens, UniProt P15056, G466V)"
  outcome_measure: "Dmax"
  endpoint_result: "35 to 70%"
- molecule: "N#Cc1c(NS(=O)(=O)N2CC[C@@H](F)C2)ccc(F)c1Oc1ccc2ncn(-c3ccc(N4CCC5(CC4)CC(OC4CCN(c6ccc7c(c6)CN([C@@H]6CCC(=O)NC6=O)C7=O)CC4)C5)cc3)c(=O)c2c1 [Example 252]"
  target: "B-RAF G466V (Homo sapiens, UniProt P15056, G466V)"
  outcome_measure: "Dmax"
  endpoint_result: "35 to 70%"
- molecule: "N#Cc1c(NS(=O)(=O)N2CC[C@@H](F)C2)ccc(F)c1Oc1ccc2ncn(-c3ccc(N4CCN(C(=O)C5CN(c6ccc7c(c6)CN([C@H]6CCC(=O)NC6=O)C7=O)C5)CC4)cc3)c(=O)c2c1 [Example 243]"
  target: "B-RAF G466V (Homo sapiens, UniProt P15056, G466V)"
  outcome_measure: "Dmax"
  endpoint_result: "35 to 70%"

Output measured Dmax for this item: C[C@H]1CN(CC2CCN(c3ccc4c(c3F)CN([C@@H]3CCC(=O)NC3=O)C4=O)CC2)CCN1c1ccc(-n2cnc3ccc(Oc4c(F)ccc(NS(=O)(=O)N5CC[C@@H](F)C5)c4C#N)cc3c2=O)nc1 [Example 214]
≤ 35%

Report Dmax for N#Cc1c(NS(=O)(=O)N2CC[C@@H](F)C2)ccc(F)c1Oc1ccc2ncn(-c3ccc(N4CCN(CC5CN(c6ccc7c(c6)CN([C@@H]6CCC(=O)NC6=O)C7=O)C5)CC4)cc3)c(=O)c2c1 [Example 107]
35 to 70%

State its Dmax for this molecule: Cc1c(N2CCC(CN3CCN(c4ccc(-n5cnc6ccc(Oc7c(F)ccc(NS(=O)(=O)N8CC[C@@H](F)C8)c7C#N)cc6c5=O)cc4)CC3)CC2)ccc2c1CN(C1CCC(=O)NC1=O)C2=O (single isomer, unassigned) [Example 111]
35 to 70%

# return recorded Dmax for input COc1cc(N2CCN(CC3CCN(c4ccc(-n5cnc6ccc(Oc7c(F)ccc(NS(=O)(=O)N8CC[C@@H](F)C8)c7C#N)cc6c5=O)cn4)CC3)CC2)cc2c1C(=O)N(C1CCC(=O)NC1=O)C2=O (stereo partly drawn) [Example 138]
≤ 35%
